Cited source: ChEMBL document CHEMBL5500348

SYSTEM_TESTED: serum albumin (Homo sapiens, UniProt P02768)
Sequence (P02768 whole entry): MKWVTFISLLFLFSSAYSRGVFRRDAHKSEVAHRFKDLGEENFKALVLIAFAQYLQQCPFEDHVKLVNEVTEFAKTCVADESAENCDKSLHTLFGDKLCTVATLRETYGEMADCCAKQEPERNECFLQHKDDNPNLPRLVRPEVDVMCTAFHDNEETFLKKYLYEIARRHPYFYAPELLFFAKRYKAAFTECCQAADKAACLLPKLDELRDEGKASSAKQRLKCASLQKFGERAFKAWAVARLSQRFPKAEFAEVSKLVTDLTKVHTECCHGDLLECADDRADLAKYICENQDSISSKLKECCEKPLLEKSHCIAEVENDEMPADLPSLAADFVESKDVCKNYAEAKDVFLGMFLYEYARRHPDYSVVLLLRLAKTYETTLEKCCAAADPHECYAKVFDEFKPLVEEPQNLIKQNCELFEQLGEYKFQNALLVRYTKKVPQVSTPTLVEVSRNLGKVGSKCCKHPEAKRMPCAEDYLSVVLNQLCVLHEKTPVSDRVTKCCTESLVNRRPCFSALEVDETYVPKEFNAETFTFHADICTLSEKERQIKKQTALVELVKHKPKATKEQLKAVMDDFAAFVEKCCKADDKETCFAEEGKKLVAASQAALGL
ASSAY_SUMMARY: Binding affinity to human serum albumin assessed as dissociation rate constant (Koff) by SPR analysis
Type: ADME
SETUP_CONDITIONS: read-out: K

SMILES_INPUT | koff (s⁻¹)
O=C1NCCCc2c1c1ccccc1n2CCCCCN1CCN(CCc2ccccc2)CC1 | 0.092
O=C1NCCCc2c1c1ccccc1n2CCCCCCCN1CCN(CCc2ccccc2)CC1 | 0.151
O=C1NCCCc2c1c1ccccc1n2CCc1ccccc1 | 0.017
O=C1NCCCc2c1c1ccccc1n2CCCCCCCN1CCN(c2ccccc2)CC1 | 0.069

###

SYSTEM_TESTED: Acetylcholinesterase (Electrophorus electricus, UniProt O42275)
Sequence (O42275 whole entry): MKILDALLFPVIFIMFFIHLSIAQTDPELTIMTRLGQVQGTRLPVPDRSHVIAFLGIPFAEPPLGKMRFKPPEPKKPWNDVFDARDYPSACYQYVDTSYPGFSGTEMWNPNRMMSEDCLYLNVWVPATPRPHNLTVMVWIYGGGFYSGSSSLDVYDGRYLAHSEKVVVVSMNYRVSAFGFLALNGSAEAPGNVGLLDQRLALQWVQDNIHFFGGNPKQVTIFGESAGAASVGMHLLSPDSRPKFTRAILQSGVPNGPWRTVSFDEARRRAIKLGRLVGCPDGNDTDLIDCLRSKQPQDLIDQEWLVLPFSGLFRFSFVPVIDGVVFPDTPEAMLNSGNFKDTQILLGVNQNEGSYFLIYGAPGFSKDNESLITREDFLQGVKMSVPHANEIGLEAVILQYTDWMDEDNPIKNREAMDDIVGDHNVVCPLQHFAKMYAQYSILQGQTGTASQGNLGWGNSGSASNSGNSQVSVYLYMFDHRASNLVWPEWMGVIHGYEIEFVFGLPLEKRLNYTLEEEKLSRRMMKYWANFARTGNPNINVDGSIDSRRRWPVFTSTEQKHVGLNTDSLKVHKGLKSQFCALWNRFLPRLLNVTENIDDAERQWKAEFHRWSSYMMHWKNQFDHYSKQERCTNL
Field: label. Allowed values: fulfilled (IC50 < 2 µM) or not fulfilled (IC50 >= 2 µM).

SMILES_INPUT | CAT
O=C1NCCCc2c1c1ccccc1n2CCCCCCCN1CCN(Cc2ccncc2)CC1 | not fulfilled
O=C1NCCCc2c1c1ccccc1n2CCCCN1CCN(Cc2ccccc2)CC1 | fulfilled
O=C1NCCCc2c1c1ccccc1n2CCN1CCN(Cc2ccccc2)CC1 | not fulfilled
O=C1NCCCc2c1c1ccccc1n2CCCCCCCN1CCN(CCc2ccccc2)CC1 | not fulfilled
O=C1NCCCc2c1c1ccccc1n2CCCCCCCN1CCN(c2ccccn2)CC1 | not fulfilled
O=C1NCCCc2c1c1ccccc1n2CCCCCN1CCN(Cc2ccccc2)CC1 | fulfilled
CN1CCN(CCCCCCCn2c3c(c4ccccc42)C(=O)NCCC3)CC1 | not fulfilled
O=C1NCCCc2c1c1ccccc1n2CCCCCCCN1CCN(c2ccccc2F)CC1 | not fulfilled
O=C1NCCCc2c1c1ccccc1n2CCCCCCCN1CCN(Cc2ccccc2)CC1 | fulfilled

###

SYSTEM_TESTED: Cholinesterase (Equus caballus)
Sequence (P81908 whole entry): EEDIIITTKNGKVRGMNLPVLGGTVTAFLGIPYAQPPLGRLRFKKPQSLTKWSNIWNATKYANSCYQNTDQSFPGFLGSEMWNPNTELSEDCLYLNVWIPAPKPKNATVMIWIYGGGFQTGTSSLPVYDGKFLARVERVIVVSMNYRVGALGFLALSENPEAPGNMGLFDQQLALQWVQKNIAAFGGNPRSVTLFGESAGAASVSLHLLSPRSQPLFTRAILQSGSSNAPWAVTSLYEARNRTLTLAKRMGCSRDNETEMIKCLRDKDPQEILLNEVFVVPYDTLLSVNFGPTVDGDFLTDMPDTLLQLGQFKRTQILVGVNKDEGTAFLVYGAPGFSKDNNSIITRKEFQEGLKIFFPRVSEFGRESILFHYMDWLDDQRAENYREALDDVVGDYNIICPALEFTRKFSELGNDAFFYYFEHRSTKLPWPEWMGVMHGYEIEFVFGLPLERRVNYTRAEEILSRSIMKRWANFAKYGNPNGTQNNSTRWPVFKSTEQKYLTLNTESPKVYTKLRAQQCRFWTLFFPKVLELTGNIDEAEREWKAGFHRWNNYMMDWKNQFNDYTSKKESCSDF
ASSAY_SUMMARY: Mixed-type inhibition of equine serum BChE using varying concentrations of butyrylthiocholine iodide as substrate assessed as inhibition constant by Lineweaver-Burk plot analysis
ASSAY_METRIC: Ki (nM)

SMILES_INPUT | RESULT_VALUE
O=C1NCCCc2c1c1ccccc1n2CCCCCCCN1CCN(CCc2ccccc2)CC1 | 27

###

Here, each record is paired with measured inhibition data.
SYSTEM_TESTED: Acetylcholinesterase (Electrophorus electricus)
ASSAY_SUMMARY: Inhibition of electric eel AChE using acetylthiocholine iodide as substrate at 20 uM preincubated for 20 mins followed by substrate addition and measured after 10 mins by DTNB-reagent based Ellman's method relative to control
SETUP_CONDITIONS: time 30.0 min

SMILES_INPUT | inhibition (%)
O=C1NCCCc2c1c1ccccc1n2CCCCCN1CCN(CCc2ccccc2)CC1 | 39
O=C1NCCCc2c1c1ccccc1n2CCCCN1CCN(CCc2ccccc2)CC1 | 36
O=C1NCCCc2c1c1ccccc1n2CCN1CCN(CCc2ccccc2)CC1 | 8
O=C1NCCCc2c1c1ccccc1n2CCCCCN1CCN(c2ccc(F)cc2)CC1 | 28
O=C1NCCCc2c1c1ccccc1n2CCCCCN1CCN(Cc2cccnc2)CC1 | 37
CN1CCN(CCCCCn2c3c(c4ccccc42)C(=O)NCCC3)CC1 | 20
O=C1NCCCc2c1c1ccccc1n2CCCCCCCN1CCN(c2ccccc2)CC1 | 17
O=C1NCCCc2c1c1ccccc1n2CCCCCN1CCN(Cc2ccncc2)CC1 | 2
O=C1NCCCc2c1c1ccccc1n2CCCCCCCN1CCN(c2ccc(F)cc2)CC1 | 10
O=C1NCCCc2c1c1ccccc1n2CCCCCN1CCN(c2ccccn2)CC1 | 13
